- Test system: HL-60(TB) leukemia
- method-notes: NCI-60 one-dose screen, 48 h (100 = growth as untreated, 0 = no growth, -100 = all killed)
- measurement-conditions: 10 µM unless noted
Compounds without any hit were thinned out: in the full panel of roughly 83,000, 20% have a hit. The source made the active and inactive calls. How the source made its calls: active means growth percent below 10; inactive means the rest.
Entries and their growth values follow.

Give the reported value of growth for this record: CCOC(=O)c1sc(Nc2ncccn2)nc1-c1ccccn1
109% (inactive)

For the compound COc1ccc2c(c1)[nH]c(=O)c1c3cccc(F)c3cn21 , give its measured growth value.
11.2% (inactive)

Give reported growth value for Fc1ccc(Nc2nnc(-c3ccc(Cl)cc3)o2)cc1
91.4% (inactive)

Read off the recorded growth for COc1ccc(Cn2cc3c(c2)-c2oncc2CC3)cc1OC
2.83% (active)

---

- Tested on: OVCAR-4 ovarian
- method-notes: NCI-60 one-dose screen, 48 h (100 = growth as untreated, 0 = no growth, -100 = all killed)
- measurement-conditions: 10 µM unless noted
About 83,000 compounds went through this panel and 20% of them were active in at least one assay; those are over-represented in the sample as a whole.
readout: growth (%)
# number only, unit % dropped from output

// known answers, use as guide
C[CH2][Sn]([CH2]C)([CH2]C)[NH]S(=O)(=O)c1ccc(C)cc1 :: 103
CNC(=O)Oc1cc(C(C)C)ccc1Sc1ccc(C(C)C)cc1OC(=O)NC :: 80.8
N#Cc1ncc(/N=C/c2ccc(N(CCCl)CCCl)cc2)s1 :: 81.9
OC1CCCCC1N1CCC(c2ccccc2)CC1 (stereo unspecified) :: 109

Provide one value: measured growth of COc1cc(CNCCc2ccc(Cl)cc2)cc(OC)c1O
69

Let me know recorded growth for O=C1NC2(CCNCC2)Nc2ccccc21 , thanks.
116

Output measured growth for this item: CC12CCC3C(CC=C4CC(O)CCC43C)C1C/C(=C\N1CCOCC1)C2=O (stereo unspecified)
94.4

Look up and report measured growth for this entry: CCC1CN1P(=O)(OCCOC)N1CC1CC (stereo unspecified)
109

Determine its reported growth: CCC(CO)NC1CCCCC1 (stereo unspecified)
89

Complete the entry with growth for COc1ccc(NP2(=O)OCC(C)(N)CO2)cc1 (stereo unspecified)
110

For the compound C=CCC1(CC)C(=O)NC(=S)NC1=O , give its measured growth value.
110

Look up growth of O=CN1N=C(c2ccc3c(c2)OCO3)CC1c1sc(N(CCCl)CCCl)nc1Cl (stereo unspecified) and report it.
100

Hello, please tell me recorded growth for this one: O=CC(Br)C(Br)c1ccccc1 (stereo unspecified)
104

Let me know recorded growth for O=C(NCCNC(=O)c1ccc([As](O)O)cc1)c1ccc([As](O)O)cc1 , thanks.
105

Determine from records and report growth for CCCCNCCc1ccccn1
106

Report growth, nothing else, for this compound: O=C1C=CC(=O)C2C1C1(Cl)C(Cl)=C(Cl)C2(Cl)C1(Cl)Cl (stereo unspecified)
58.1

---

- Test system: SNB-75 CNS
- method-notes: NCI-60 one-dose screen, 48 h (100 = growth as untreated, 0 = no growth, -100 = all killed)
- measurement-conditions: 10 µM unless noted
This is part of a sample that, as a whole, favours compounds with a hit. Of some 83,000 tested, about 20% had one in any assay.
Measured growth, listed per entry for reference.
Report the value in % with no unit label.

OC1(c2ccc(Cl)cc2Cl)c2ccccc2C2=NCCN21 (centres undefined) :: 94.2

Give growth for Oc1ccc2c3c1O[C@H]1c4[nH]c5ccccc5c4C[C@@]4(O)C(C2)N(CC2CC2)CC[C@]314 tested on SNB-75 CNS.
76.8

State growth on SNB-75 CNS. Entry: C=CCN1C(=O)C(CC)(CCC(C)C)C(=O)NC1=S (centres undefined)
96.8
